Tested on: Haemophilus influenzae Spain 7
Experiment: Determination of the minimum inhibitory concentration (MIC), liquid dilution test
Type: cell-based
Details: BHI broth plus 20% bovine serum, 10 μg/ml hemin and 1% Isovitale, 37° C., 18-24 hours, 8-10% CO2
Give measured MIC Haemophilus influenzae Spain 7 for each item. Keep answers brief.
One number for each entry, in μmol/1.

# map each compound to its MIC Haemophilus influenzae Spain 7
1. CC(C)[C@H](NC(=O)CC(NC(=O)/C=C/c1ccc2c(c1)OCO2)c1ccc2c(c1)OCCO2)C(=O)[C@@H]1C(=O)NC(=O)[C@H]1C (stereo partly shown)
2. C[C@@H]1C(=O)NC(=O)[C@H]1C(=O)[C@@H](NC(=O)C[C@H](NC(=O)/C=C/c1ccc2c(c1)OCO2)c1ccccc1)C1CCCC1
3. CC(C)[C@H](NC(=O)C[C@H](NC(=O)/C=C/c1ccsc1)c1ccccc1)C(=O)[C@@H]1C(=O)NC(=O)[C@H]1C
4. C[C@@H]1C(=O)NC(=O)[C@H]1C(=O)[C@@H](NC(=O)C[C@H](NC(=O)/C=C/c1ccc2c(c1)OCO2)c1ccccc1)C(C)(C)C
5. C[C@@H]1C(=O)N(N)C(=O)[C@H]1C(=O)[C@@H](NC(=O)C[C@H](NC(=O)/C=C/c1ccc(C#N)cc1)c1ccccc1)C1CCCC1
6. CC(C)[C@H](NC(=O)C[C@H](NC(=O)/C=C/c1ccc2c(c1)OCO2)c1ccccc1)C(=O)[C@@H]1C(=O)NC(=O)[C@H]1C
7. CC(C)[C@H](NC(=O)CC(NC(=O)/C=C/c1ccc2c(c1)OCO2)c1ccc2ccccc2c1)C(=O)[C@@H]1C(=O)NC(=O)[C@H]1C (stereo partly shown)

Response:
1. 3.9
2. 31.3
3. 62.5
4. 31.3
5. 7.8
6. 31.3
7. 15.6
